Each entry below carries its recorded Ratio.
Tested on: Escherichia coli
Assay: Selectivity of inhibitory activity of Methionine aminopeptidase 1 from Escherichia coli to Methionine aminopeptidase 1 from Saccharomyces cerevisiae

{"columns": ["smiles code", "comparison operator", "Ratio"],
 "data": [
  ["CC(C)=CCCC(=O)Nc1cccnc1C(=O)Nc1nccs1", "=", 2],
  ["Nc1cccnc1C(=O)Nc1nccs1", "=", 0.052],
  ["CC(C)=CCC(=O)Nc1cccnc1C(=O)Nc1nccs1", "=", 1.71],
  ["O=C(Nc1cccnc1C(=O)Nc1nccs1)c1ccccc1", "<", 0.0089],
  ["CC(=O)Oc1ccccc1C(=O)Oc1cccnc1C(=O)Nc1nccs1", "=", 0.11],
  ["CC(C)(C)C(=O)Nc1cccnc1C(=O)Nc1nccs1", "=", 1.59]
]}

* * *

System: Escherichia coli
Experiment: Selectivity of inhibitory activity of Methionine aminopeptidase 1 from Escherichia coli to Methionine aminopeptidase 1 from Saccharomyces cerevisiae
Listed below: Ratio values for each entry.
parameter measured: Ratio

{"columns": ["smiles code", "study system", "reported measurement"],
 "data": [
  ["CCCCCC(=O)Oc1cccnc1C(=O)Nc1nccs1", "Escherichia coli", 0.59],
  ["CCCCCC(=O)Nc1cccnc1C(=O)Nc1nccs1", "Escherichia coli", 0.61],
  ["COc1cccc(C(=O)Oc2cccnc2C(=O)Nc2nccs2)c1[N+](=O)[O-]", "Escherichia coli", 0.56],
  ["O=C(Oc1cccnc1C(=O)Nc1nccs1)c1ccccc1F", "Escherichia coli", 0.052],
  ["COc1ccccc1/C=C/C(=O)Oc1cccnc1C(=O)Nc1nccs1", "Escherichia coli", 0.21],
  ["O=C(Oc1cccnc1C(=O)Nc1nccs1)c1ccccc1", "Escherichia coli", 1.2]
]}
